molecular target: UniProt:O15552; assay: Agonist activity at human FFA2 receptor expressed in CHO cells assessed as inhibition of forskolin-induced cAMP production relative to acetate; assay type: functional, cell-based
Entries whose Efficacy is below 70% take Satisfied; entries at or above 70% take Not satisfied.

Check out these entries, answers already filled in.
| Compound | Target Or Test System | Class |
| --- | --- | --- |
| CC(C)C(C(=O)Nc1cccnc1)c1ccc(Cl)cc1 (racemic) | UniProt:O15552 | Not satisfied |
| CC(C)[C@H](C(=O)Nc1cccc(F)n1)c1ccc(Cl)cc1 | UniProt:O15552 | Not satisfied |
| CSc1cnc(NC(=O)[C@H](c2ccc(Cl)cc2)C(C)(C)C)s1 | UniProt:O15552 | Not satisfied |

Exercise: Is Efficacy of `CC(C)[C@H](C(=O)Nc1nccs1)c1ccc(Cl)cc1` strictly below 70%?
Key: Not satisfied

Exercise: Item `COCC[C@H](C(=O)Nc1nccs1)c1ccc(Cl)cc1` : Efficacy beneath 70%, strictly?
Key: Satisfied

Exercise: Here's an entry: `CC(C)(C(=O)Nc1ncc(F)s1)c1ccc(Cl)cc1` . Is its Efficacy below 70%?
Key: Satisfied

Exercise: Quick check: does `CC(C)[C@H](C(=O)Nc1ncc(C(=O)O)s1)c1ccc(Cl)cc1` have Efficacy under 70%?
Key: Satisfied

Exercise: Efficacy strictly < 70% for this compound? CC(C)C(C(=O)Nc1nc2ccccc2s1)c1ccc(Cl)cc1 (racemic)
Key: Not satisfied

Exercise: Efficacy strictly < 70% for this compound? `CC(C)(C)[C@H](C(=O)Nc1ncc(Cc2ccc(Cl)cc2)s1)c1ccc(Cl)cc1`
Key: Not satisfied

Exercise: Input `CC(C)[C@H](C(=O)Nc1cccnn1)c1ccc(Cl)cc1` ; condition: Efficacy strictly below 70%. Does it hold?
Key: Not satisfied

Exercise: Could you please tell me whether Efficacy recorded for CC(C)C(C(=O)Nc1ncccn1)c1ccc(Cl)cc1 (racemic) is less than 70%?
Key: Satisfied

----------
test system: Rattus norvegicus; test: Clearance in Sprague-Dawley rat at 0.5 mg/kg, iv; format: ADME, organism-based; set-up: dose 0.5 mg/kg, route intravenous; details: in vivo
Observed Property: CL (mL/min/kg)
The response must be a number in mL/min/kg with no trailing unit.

| Smiles Str | Value Unit | CL |
| --- | --- | --- |
| CC(C)[C@H](C(=O)Nc1ncc(Cl)s1)c1ccc(Cl)cc1 | mL/min/kg | 33 |
| CC(C)(C)[C@H](C(=O)Nc1ncc(-c2ccccc2)s1)c1ccc(Cl)cc1 | mL/min/kg | 5.33 |
| CC(C)[C@H](C(=O)Nc1ncc(F)s1)c1ccc(Cl)cc1 | mL/min/kg | 43.3 |
| CC(C)[C@H](C(=O)Nc1nccs1)c1ccc(Cl)cc1 | mL/min/kg | 107 |

Now consider a different compound.
Reported CL for `CC(C)(C)[C@H](C(=O)Nc1ncc(Cl)s1)c1ccc(Cl)cc1` was 8

----------
target: Free fatty acid receptor 2 (Homo sapiens); test: Agonist activity at human FFA2 receptor expressed in CHO cells assessed as inhibition of forskolin-induced cAMP production relative to acetate; assay type: functional, cell-based
# Efficacy annotations
Only the number, expressed in %, is required.

| Smiles Str | Target Or Test System | Test Value |
| --- | --- | --- |
| CC[C@H](C(=O)Nc1nccs1)c1ccc(Cl)cc1 | Free fatty acid receptor 2 (Homo sapiens) | 105 |
| CC(C)[C@H](C(=O)Nc1nc(C(F)(F)F)cs1)c1ccc(Cl)cc1 | Free fatty acid receptor 2 (Homo sapiens) | 123 |
| CC(C)[C@H](C(=O)NC1=NC(=O)CS1)c1ccc(Cl)cc1 | Free fatty acid receptor 2 (Homo sapiens) | 96 |
| CC(C)[C@H](C(=O)NC1=NCCS1)c1ccc(Cl)cc1 | Free fatty acid receptor 2 (Homo sapiens) | 109 |

Turning now to a further molecule:
For reference, reported Efficacy for `CC(C)[C@H](C(=O)Nc1ncc(C#N)s1)c1ccc(Cl)cc1` stands at 105

----------
assay: Mean residence time in Sprague-Dawley rat at 0.5 mg/kg, iv; format: ADME, organism-based; set-up: dose 0.5 mg/kg, route intravenous; settings: in vivo
Observed Property: MRT
Answer shape: numeric part, then the unit.

| Smiles Str | MRT |
| --- | --- |
| CC(C)(C)[C@H](C(=O)Nc1ncc(Cl)s1)c1ccc(Cl)cc1 | 9 h |

get_value(item= `CC(C)[C@H](C(=O)Nc1ncc(F)s1)c1ccc(Cl)cc1` , readout=MRT) returns 3.8 h

Entry `CC(C)[C@H](C(=O)Nc1nccs1)c1ccc(Cl)cc1` , MRT reported as 1.1 h

Looking up `CC(C)(C)[C@H](C(=O)Nc1ncc(-c2ccccc2)s1)c1ccc(Cl)cc1` , I see its MRT listed as 9.1 h

Recorded MRT (molecule `CC(C)[C@H](C(=O)Nc1ncc(Cl)s1)c1ccc(Cl)cc1` ): 4.2 h

----------
biological target: Free fatty acid receptor 2 (Homo sapiens, UniProt O15552); assay: Agonist activity at human FFA2 receptor expressed in CHO cells assessed as inhibition of forskolin-induced cAMP production
Sequence (O15552 whole entry): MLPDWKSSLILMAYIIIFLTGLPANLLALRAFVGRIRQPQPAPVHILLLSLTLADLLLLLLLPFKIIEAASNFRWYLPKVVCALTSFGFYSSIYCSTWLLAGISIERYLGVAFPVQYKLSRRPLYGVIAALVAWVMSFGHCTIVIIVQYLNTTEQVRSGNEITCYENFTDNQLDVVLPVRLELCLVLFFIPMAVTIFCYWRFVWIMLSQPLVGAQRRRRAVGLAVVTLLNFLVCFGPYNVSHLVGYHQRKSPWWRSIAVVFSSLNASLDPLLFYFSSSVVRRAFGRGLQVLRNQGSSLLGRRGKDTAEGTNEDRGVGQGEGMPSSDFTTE
Observed Property: IC50 (µM)
Expressed in µM, but write only the number.

Example entries begin here.
| Compound | Value Unit | Test Value |
| --- | --- | --- |
| CC(C)[C@H](C(=O)Nc1nncs1)c1ccc(Cl)cc1 | µM | 12 |
| O=C(Nc1ncc(F)s1)[C@H](c1ccc(Cl)cc1)C1CC1 | µM | 1.2 |
| O=C(Nc1ncc(F)s1)[C@H](c1ccc(C(F)(F)F)cc1)C1CC1 | µM | 1.1 |
| CC(=O)O [ACETIC ACID] | µM | 120 |
| CC(C)(C)[C@H](C(=O)Nc1ncc(Cl)s1)c1ccc(Cl)cc1 | µM | 1 |
| O=C(Nc1ncc(F)s1)C1(c2ccc(Cl)cc2)CCCC1 | µM | 5 |
| CC(C)[C@H](C(=O)Nc1cnns1)c1ccc(Cl)cc1 | µM | 57 |
| CC(C)[C@H](C(=O)Nc1nc2cc(Cl)ccc2o1)c1ccc(Cl)cc1 | µM | 4.3 |

# next compound below
Query `O=C(Nc1ncc(F)s1)C1(c2ccc(Cl)cc2)CCCCC1` yields IC50 of 8.5

----------
biological target: Free fatty acid receptor 2 (Homo sapiens, UniProt O15552); assay: Agonist activity at human FFA2 receptor expressed in CHO cells assessed as inhibition of forskolin-induced cAMP production
Observed Property: pIC50
In simple prose, pIC50 is minus the logarithm base ten of a concentration in moles per litre.

| Smiles Str | Observed Property | Test Value |
| --- | --- | --- |
| O=C(Nc1nccs1)[C@@H](CC1CC1)c1ccc(Cl)cc1 | pIC50 | 5.06 |
| CC(C)(C)[C@H](C(=O)Nc1ncc(N2CCOCC2)s1)c1ccc(Cl)cc1 | pIC50 | 5.80 |
| COC(=O)c1cnc(NC(=O)[C@H](c2ccc(Cl)cc2)C(C)C)s1 | pIC50 | 5.70 |
| CC(C)(C)[C@H](C(=O)Nc1ncc(-c2ccccc2)s1)c1ccc(Cl)cc1 | pIC50 | 6.15 |
| CN1CCN(c2cnc(NC(=O)[C@H](c3ccc(Cl)cc3)C(C)(C)C)s2)CC1 | pIC50 | 5.42 |

// pIC50 lookup, compound = `CC(C)(C)[C@H](C(=O)Nc1ncc(N2CCS(=O)(=O)CC2)s1)c1ccc(Cl)cc1` , result: 5.62

// `CC(C)[C@H](C(=O)Nc1nc(C(F)(F)F)cs1)c1ccc(Cl)cc1` : pIC50 value = 4.77

For `CC(C)[C@H](C(=O)Nc1ccncc1)c1ccc(Cl)cc1` the compound record lists pIC50 as 4.25

Input `C[C@H](C(=O)Nc1nccs1)c1ccc(Cl)cc1` . Output pIC50: 4.34

----------
biological target: Free fatty acid receptor 2 (Homo sapiens) (UniProt O15552); test: Agonist activity at human FFA2 receptor expressed in CHO cells assessed as inhibition of forskolin-induced cAMP production relative to acetate; assay type: functional, cell-based
Sequence (O15552 whole entry): as above
Reported Efficacy values for a set of compounds
# number only, unit % dropped from output

For orientation, consider the following solved cases.
| Compound | Test Value |
| --- | --- |
| CC(C)C(C(=O)Nc1cnccn1)c1ccc(Cl)cc1 (racemic) | 115 |
| O=C(Nc1ncc(F)s1)[C@H](c1ccc(C(F)(F)F)cc1)C1CC1 | 108 |
| CC(C)[C@H](C(=O)Nc1nc2cc(Cl)ccc2o1)c1ccc(Cl)cc1 | 88 |
| CC(C)[C@H](C(=O)Nc1ncns1)c1ccc(Cl)cc1 | 99 |

Please fill in: Efficacy reported for CC(C)C(C(=O)Nc1nc2ccccc2[nH]1)c1ccc(Cl)cc1 (racemic) = 84

Entry `CCC[C@H](C(=O)Nc1nccs1)c1ccc(Cl)cc1` ; Efficacy = 108

// recorded Efficacy for `CC(C)(C)[C@H](C(=O)Nc1ncc(Br)s1)c1ccc(Cl)cc1` : 95

Note to self: Efficacy recorded for `CC(C)[C@H](C(=O)Nc1nc(C(C)(C)C)cs1)c1ccc(Cl)cc1` was 45

Efficacy in this record for `CC(C)(C)[C@H](C(=O)Nc1ncc(C(O)(C(F)(F)F)C(F)(F)F)s1)c1ccc(Cl)cc1` : 113

Consider `CN1CCN(c2cnc(NC(=O)[C@H](c3ccc(Cl)cc3)C(C)(C)C)s2)CC1` . Its measured Efficacy is 113

The compound listed as `CC(C)[C@H](C(=O)Nc1ncc(C(F)(F)F)s1)c1ccc(Cl)cc1` shows Efficacy equal to 95

The compound listed as `CC(C)(C)[C@H](C(=O)Nc1ncc(N2CCOCC2)s1)c1ccc(Cl)cc1` shows Efficacy equal to 111

// sample `C[C@H](C(=O)Nc1nccs1)c1ccc(Cl)cc1` , its Efficacy was 83

Consider `CC(C)[C@H](C(=O)Nc1ncc(Cl)s1)c1ccc(Cl)cc1` . Its measured Efficacy is 100

Efficacy for `CC(C)(C)[C@H](C(=O)Nc1ncc(F)s1)c1ccc(Cl)cc1` is 92

// field: Efficacy; key: CC(C)C(C(=O)Nc1nccs1)c1ccc(Cl)cc1 (racemic) ; value = 98

Summary for this compound, `CC(C)(C)[C@H](C(=O)Nc1ncc(N2CCS(=O)(=O)CC2)s1)c1ccc(Cl)cc1` : Efficacy is 118

Looking up CC(C)[C@H](C(=O)Nc1ccon1)c1ccc(Cl)cc1 (racemic) , I found its Efficacy recorded as 90

Efficacy measured on `CC(C)[C@H](C(=O)N(C)c1nccs1)c1ccc(Cl)cc1` = 37

Value of measured Efficacy for the entry `CC(C)(C)[C@H](C(=O)Nc1ncc(Cl)s1)c1ccc(Cl)cc1` : 97

Per the record, `O=C(Nc1nccs1)[C@@H](CC1CC1)c1ccc(Cl)cc1` has Efficacy of 72

What the record says about `CC(C)[C@H](C(=O)Nc1cnns1)c1ccc(Cl)cc1` : Efficacy is 48

Source listed as ChEMBL document CHEMBL1153229.
